- measurement-target: Influenza A H3 hemagglutinin (A/Hong Kong/1/1968) ectodomain (Influenza A virus (A/Hong Kong/1/1968), UniProt Q91MA7 17-530)
- Sequence (Q91MA7 17-530): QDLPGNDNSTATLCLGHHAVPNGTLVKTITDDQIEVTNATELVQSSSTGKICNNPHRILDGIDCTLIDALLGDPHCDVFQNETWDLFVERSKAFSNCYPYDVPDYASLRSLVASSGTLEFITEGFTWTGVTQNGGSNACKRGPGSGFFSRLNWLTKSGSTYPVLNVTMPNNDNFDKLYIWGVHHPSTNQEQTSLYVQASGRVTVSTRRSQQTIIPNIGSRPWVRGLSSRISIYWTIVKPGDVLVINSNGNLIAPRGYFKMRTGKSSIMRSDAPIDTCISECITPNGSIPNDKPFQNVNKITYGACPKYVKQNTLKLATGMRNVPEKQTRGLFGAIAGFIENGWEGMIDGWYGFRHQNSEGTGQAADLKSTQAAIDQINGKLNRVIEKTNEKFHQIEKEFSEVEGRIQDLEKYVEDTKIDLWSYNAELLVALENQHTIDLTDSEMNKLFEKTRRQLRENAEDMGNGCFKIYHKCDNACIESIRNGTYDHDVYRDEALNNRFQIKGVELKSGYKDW
- assay-comment: BLI (Octet); biotinylated target on streptavidin sensors, miniprotein as analyte
measured-endpoint: Kd (nM)
Write the answer as a number in nM, unit excluded.

**Q:** Provide one value: measured Kd of H3_mb (designed binder) MSHHHHHHHHSENLYFQSGGGSQHEKFLEWMLRKIEEAIKRGNKISAEFLINLAKNFIHVLGDDEIRRRLERLERQLH
**A:** 320
